- PROTOCOL DESCRIPTION: Cytotoxicity of the prodrug in human cells (CellTiter-Glo 2.0), HeLa S3
- Type: cell-based
- CONDITION DESCRIPTION: human, HeLa S3 cells; HeLa S3, 10 µM; read-out: Cytotoxicity of prodrug: HeLaS3 viability
Parameter: viability at 10 µM. Scope: all listed entries.

Prompt: State its viability at 10 µM for this compound: CC(C)OC(=O)[C@H](Cc1ccccc1)NP(=O)(CCSCCn1cnc2c(N)ncnc21)N[C@@H](Cc1ccccc1)C(=O)OC(C)C [24b]
Completion: 98%

Prompt: State its viability at 10 µM for this compound: CCOC(=O)[C@H](Cc1ccccc1)NP(=O)(CCOCC(Cn1cnc2c(N)ncnc21)OCCP(=O)(N[C@@H](Cc1ccccc1)C(=O)OCC)N[C@@H](Cc1ccccc1)C(=O)OCC)N[C@@H](Cc1ccccc1)C(=O)OCC (stereo partly shown)
Completion: 100%

Prompt: State its viability at 10 µM for this compound: `CCOC(=O)[C@H](Cc1ccccc1)NP(=O)(COCC(COCP(=O)(N[C@@H](Cc1ccccc1)C(=O)OCC)N[C@@H](Cc1ccccc1)C(=O)OCC)Cn1cnc2c(N)ncnc21)N[C@@H](Cc1ccccc1)C(=O)OCC`
Completion: 99%

More entries:
Prompt: State its viability at 10 µM for this compound: CC(C)OC(=O)[C@H](Cc1ccccc1)NP(=O)(CSCCCn1cnc2c(N)ncnc21)N[C@@H](Cc1ccccc1)C(=O)OC(C)C [24a]
Completion: 99%
